Measured values drawn from paper PMC5862516 for this set.

Listing of entries alongside the reported activity at 5 µM.
Tested on: SOSV minigenome
Test: microbe, parasite or virus in culture
Settings: Sosuga virus, Huh-7, 72 h, read-out: Minigenome activity (Relative ZsG fluorescence)
Dear colleague, please return just the value in %, with no unit written.

Before answering, review these 6 worked examples.
C[C@@]1(O)[C@H](O)[C@@H](CO)O[C@H]1n1ccc(=O)[nH]c1=O [2′-C-Methyluridine]: 125
O=c1[nH]c(=O)n([C@@H]2O[C@H](CO)[C@@H](O)[C@H]2O)cc1Cl [5-Chlorouridine]: 146
O=c1cnn([C@@H]2O[C@H](CO)[C@@H](O)[C@H]2O)c(=O)[nH]1 [6-azauridine]: 46
Cc1cn([C@@H]2O[C@H](CO)[C@@H](O)[C@H]2O)c(=O)nc1N [5-Methylcytidine]: 125
O=c1cnn([C@@H]2O[C@H](CO)[C@@H](O)[C@H]2O)c(=S)[nH]1 [6-Aza-2-thiouridine]: 110
CC(C)C(=O)OC[C@@]1(N=[N+]=[N-])O[C@@H](n2ccc(N)nc2=O)[C@H](OC(=O)C(C)C)[C@@H]1OC(=O)C(C)C [Balapiravir (R1626), Balapiravir]: 90

Now for another entry.
Task item: What reported activity at 5 µM corresponds to [N-]=[N+]=Nc1nc2c(N)ncnc2n1[C@@H]1O[C@H](CO)[C@@H](O)[C@H]1O [8-Azidoadenosine] on SOSV minigenome?
Reply: 1

====

Assay: in vitro
Conditions: human, CC50
Catalogue of CC50 values

In the examples that follow, each entry is paired with its recorded CC50.
COc1c(C)c2c(c(O)c1C/C=C(\C)CCC(=O)O)C(=O)OC2: 1.7 µM
NC(=O)c1ncn([C@@H]2O[C@H](CO)[C@@H](O)[C@H]2O)n1: > 50 µM
O=c1[nH]c(=O)n([C@@H]2O[C@H](CO)[C@@H](O)[C@H]2O)cc1F: > 50 µM

Task item: Look at this compound and give its reported CC50. Nc1ccn([C@@H]2O[C@H](CO)[C@@H](O)[C@H]2F)c(=O)n1
Reply: > 50 µM

Task item: Fill blank: measured CC50 of the compound O=c1cnn([C@@H]2O[C@H](CO)[C@@H](O)[C@H]2O)c(=O)[nH]1 is ____.
Reply: > 50 µM

====

Tested on: Huh7 cells
Settings: human
RECORDED_ENDPOINT: CC50 (nM)
Kindly answer with a numeric value in nM, unit omitted.

Task item: Query: CC50; subject: COc1c(C)c2c(c(O)c1C/C=C(\C)CCC(=O)O)C(=O)OC2 [Mycophenolic acid]
Reply: 1740

====

# Lookup of reported activity at 5 µM keyed by entry
Tested on: SOSV minigenome
Experiment: microbe, parasite or virus in culture
Settings: Sosuga virus, Huh-7, 72 h, read-out: Minigenome activity (Relative ZsG fluorescence)
Provide the reading as a plain figure in %.

Solved entries (count: 5):
C[C@@]1(O)[C@H](O)[C@@H](CO)O[C@H]1n1ccc(N)nc1=O: 114
COc1c(C)c2c(c(O)c1C/C=C(\C)CCC(=O)O)C(=O)OC2: 1
Cc1cn([C@H]2C=C[C@@H](CO)O2)c(=O)[nH]c1=O: 115
Cc1cn([C@H]2C[C@H](N=[N+]=[N-])[C@@H](CO)O2)c(=O)[nH]c1=O: 113
Nc1ncnc2c([C@@H]3N[C@H](CO)[C@@H](O)[C@H]3O)c[nH]c12: 118

Task item: Record request: activity at 5 µM value, item Nc1ncn([C@@H]2O[C@H](CO)[C@@H](O)[C@H]2O)c(=O)n1
Reply: 108

Task item: Need activity at 5 µM, item Nc1ncnc2c1ncn2[C@@H]1O[C@H](CO)C[C@H]1O [Cordycepin]
Reply: 101

Task item: # activity at 5 µM lookup, item O=c1[nH]c(=O)n([C@@H]2O[C@H](CO)[C@@H](O)[C@H]2O)cc1Br
Reply: 122

Task item: Query: activity at 5 µM; subject: Nc1ccn([C@@H]2O[C@H](CO)[C@@H](O)[C@H]2F)c(=O)n1
Reply: 13

Task item: // query activity at 5 µM value for entry CO[C@@H]1[C@H](O)[C@@H](CO)O[C@H]1n1ccc(N)nc1=O
Reply: 119
